test system: HL-60; test: Cytotoxicity against human HL60 cells by trypan blue staining based assay; assay type: functional, cell-based
measurement-label: log10 IC50 (log10 of the value in µM)
Please be aware that the numbers have been log10-transformed from IC50 in µM.

A selection of reference data follows.
> print(dat)
                                   molecule  measurement.target  measured.number
1  CC(C)=CCCC(C)(O)[C@H]1CC[C@@]2(C)OC3=C(C[C@@H]12)C(=O)[C@@H](O)CC3 (stereo not given in full)               HL-60             1.51
2  CC(C)=CC/C=C(/C)[C@H]1CC[C@@]2(C)OC3=C(C[C@@H]12)C(=O)CC[C@@H]3O               HL-60             1.49

List the reported log10 IC50 of each molecule below.
1. O=C1C[C@@H](O)[C@]2(Oc3cccc4c(O)ccc(c34)O2)c2c(O)ccc(O)c21
2. O=C1CC[C@]2(C[C@@H](O)C(=O)O2)c2cccc(O)c21
3. C=C(CO)C(=O)CCC(C)C1=CC[C@@]2(C)OC3=C(C[C@@H]12)C(=O)[C@@H](O)CC3 (stereo not given in full)

1. 0.38
2. 1.46
3. 0.68

* * *

system: MCF7; assay: Cytotoxicity against human MCF7 cells after 48 hrs by MTS assay; assay type: functional, cell-based; details: MCF7, 48 h
measurement-label: IC50 (µM)
Numbers only, in µM.

Tell me measured IC50 for COC(=O)c1cc(OC)cc(O)c1C(=O)c1c(O)cc(C)c2c1O[C@@](C)(CC(=O)[C@@]13C[C@H](O)[C@@H]4O[C@]4(CC=C(C)C)[C@@H]1O3)C2 please.
38.3

* * *

system: A549; assay: Cytotoxicity against human A549 cells by MTT assay; type: functional, cell-based
Task for the reader: assign each of the following molecules its reported IC50.
Answers are plain numbers, in µM.

Examples with their reported IC50 follow.
> print(dat)
                                   molecule  measured.number
1  C[C@@H]1CC2=C(CO1)C(=O)[C@@](C)(O)[C@@H](O)C2             41.9
2  COC(=O)[C@@H]1c2c(oc3cc(CCO)cc(O)c3c2=O)C=C[C@H]1O              5.6
3  COC(=O)[C@@H]1c2c(oc3cc(CO)cc(OC)c3c2=O)C=C[C@H]1O              5.7

Value sought for every listed molecule: IC50.
1. CC1=C[C@@H]2/C=C/C[C@H](C)/C=C(\C)CC(=O)/C=C/C(=O)[C@]23C(=O)N[C@@H](Cc2c[nH]c4ccccc24)[C@@H]3[C@@H]1C
2. CCCCc1c(OC)cc(=O)oc1C
3. CC1=C[C@@H]2/C=C/C[C@H](C)/C=C(\C)C(=O)C(=O)/C=C/C(=O)[C@]23C(=O)N[C@H]2Cc4c([nH]c5ccccc45)[C@@]1(C)[C@@H]23
4. COc1cc(O)c2c(=O)c3c(O)ccc(C(CO)C(O)CO)c3oc2c1O (stereo not drawn)
5. CC(C)[C@@H]1CC[C@](C)(O)C2=C1C(=O)[C@](C)(O)C[C@@H]2O

1. 35.9
2. 38.7
3. 8.73
4. 3.6
5. 0.2

Provenance of the data: ChEMBL document CHEMBL4411258
